tested on: EKVX NSCLC; test: NCI-60 one-dose screen, 48 h (100 = growth as untreated, 0 = no growth, -100 = all killed); settings: 10 µM
The panel holds about 83,000 compounds, 20% with a hit somewhere; the sample as a whole holds those more often.
experimental_endpoint: growth (%)
Give bare numbers, in %.

CCOP(=O)(CC(F)(F)C(F)(F)F)OCC : 89.5
C=CCN=C([Se])NC(=O)c1ccc2c(c1)OCO2 : 73.5

input: Look up and report measured growth for this entry: "COP(=O)(CC(F)(F)C(F)(F)F)OC"
output: 81.1

====

tested on: BT-549 breast; test: NCI-60 one-dose screen, 48 h (100 = growth as untreated, 0 = no growth, -100 = all killed); conditions: 10 µM
About 83,000 compounds went through this panel and 20% of them were active in at least one assay; those are over-represented in the sample as a whole.
experimental_endpoint: growth (%)
Numbers only, in %.

O=C(NC([Se])=NC1CCCCC1)c1ccc2c(c1)OCO2 : 96.7

List growth for every entry below, keeping the order given.
1. O=C(NCCCCC(c1ccc(F)cc1)c1ccc(F)cc1)Nc1ccc([N+](=O)[O-])c(C(F)(F)F)c1
2. O=C(/C=C/c1ccc(F)cc1)c1nc2ccccc2n1Cc1ccc(F)cc1
3. O=C(/C=C/c1ccco1)c1nc2ccccc2n1Cc1ccc(F)cc1
4. C[C@H]1[C@H](OC(=O)CCC(=O)N(CCCc2cn(-c3ccc(C#N)cc3)nn2)CCNc2ccnc3cc(Cl)ccc23)O[C@@H]2OC3(C)CC[C@H]4[C@H](C)CC[C@@H]1[C@@]24OO3

output:
[-28, -23.8, 59.7, 24.2]
